Tested on: Heliobacter pylori
MEASUREMENT LABEL: MIC to H. Pylori without EDTA (µg/mL)
Numbers only, in µg/mL.

{"MOLECULE": "C=C1NC(=O)[C@H](Cc2c[nH]c3ccccc23)NC(=O)[C@H](NC(=O)[C@H](CCCCN)NC(=O)[C@@H](N)[C@@H](C)CC)CSC[C@@H](C(=O)N[C@H]2C(=O)N3CCC[C@H]3C(=O)NCC(=O)N[C@H](C(=O)N[C@@H](C)C(=O)N[C@@H](CC(N)=O)C(=O)NC(=CC)C(=O)NCC(=O)N[C@@H]3CSC[C@@H]4NC(=O)[C@H](Cc5ccccc5)NC(=O)[C@@H](CS/C=C\\NC4=O)NC(=O)[C@H](CC(N)=O)NC(=O)[C@H](Cc4ccccc4)NC3=O)CS[C@H]2C)NC(=O)[C@H](CC(C)C)NC1=O [F1I R13N Y20F]", "TESTED TARGET": "Heliobacter pylori", "UNITS LABEL": "µg/mL", "MIC to H. Pylori without EDTA": 8}

Now look at this entry.
[ask] What does the record list as MIC to H. Pylori without EDTA for C=C1NC(=O)[C@H](Cc2c[nH]c3ccccc23)NC(=O)[C@H](NC(=O)[C@H](CCCCN)NC(=O)[C@@H](N)[C@@H](C)CC)CSC[C@@H](C(=O)N[C@H]2C(=O)N3CCC[C@H]3C(=O)NCC(=O)N[C@H](C(=O)N[C@@H](C)C(=O)N[C@@H](C)C(=O)NC(=CC)C(=O)NCC(=O)N[C@@H]3CSC[C@@H]4NC(=O)[C@H](Cc5ccc(O)cc5)NC(=O)[C@@H](CS/C=C\NC4=O)NC(=O)[C@H](CC(N)=O)NC(=O)[C@H](Cc4ccccc4)NC3=O)CS[C@H]2C)NC(=O)[C@H](CC(C)C)NC1=O [F1I R13A] ?
[reply] 8

----------
Tested on: Clostridium difficile UNT103-1
Test: Non-cannulated Syrian hamster C. difficile infection model, oral gavage
Assay type: in vivo, Golden Syrian hamsters
Details: oral gavage; second value of A/B cell; limit of detection 0.8
Marks after values point to notes of the source that are not given here.
Task for the reader: assign each of the following molecules its reported Toxin B level at Day-22.

Here are 3 molecules together with their reported answers.
{"MOLECULE": "C=C1NC(=O)[C@H](Cc2c[nH]c3ccccc23)NC(=O)[C@H](NC(=O)[C@H](CCCCN)NC(=O)[C@@H](N)[C@@H](C)CC)CSC[C@@H](C(=O)N[C@H]2C(=O)N3CCC[C@H]3C(=O)NCC(=O)N[C@H](C(=O)N[C@@H](C)C(=O)N[C@@H](CC(N)=O)C(=O)NC(=CC)C(=O)NCC(=O)N[C@@H]3CSC[C@@H]4NC(=O)[C@H](Cc5ccccc5)NC(=O)[C@@H](CS/C=C\\NC4=O)NC(=O)[C@H](CC(N)=O)NC(=O)[C@H](Cc4ccccc4)NC3=O)CS[C@H]2C)NC(=O)[C@H](CC(C)C)NC1=O [F1I R13N Y20F]", "RESULT": "6 ng/mL"}
{"MOLECULE": "C=C1NC(=O)[C@H](Cc2c[nH]c3ccccc23)NC(=O)[C@H](NC(=O)[C@H](CCCCN)NC(=O)[C@@H](N)CC(C)C)CSC[C@@H](C(=O)N[C@H]2C(=O)N3CCC[C@H]3C(=O)NCC(=O)N[C@H](C(=O)N[C@@H](C)C(=O)N[C@@H](C)C(=O)NC(=CC)C(=O)NCC(=O)N[C@@H]3CSC[C@@H]4NC(=O)[C@H](Cc5ccc(O)cc5)NC(=O)[C@@H](CS/C=C\\NC4=O)NC(=O)[C@H](CC(N)=O)NC(=O)[C@H](Cc4ccccc4)NC3=O)CS[C@H]2C)NC(=O)[C@H](CC(C)C)NC1=O [F1L R13A]", "RESULT": "1795.5 ng/mL"}
{"MOLECULE": "C=C1NC(=O)[C@H](Cc2c[nH]c3ccccc23)NC(=O)[C@H](NC(=O)[C@H](CCCCN)NC(=O)[C@@H](N)[C@@H](C)CC)CSC[C@@H](C(=O)N[C@H]2C(=O)N3CCC[C@H]3C(=O)NCC(=O)N[C@H](C(=O)N[C@@H](C)C(=O)N[C@@H](CC(=O)O)C(=O)NC(=CC)C(=O)NCC(=O)N[C@@H]3CSC[C@@H]4NC(=O)[C@H](Cc5ccc(O)cc5)NC(=O)[C@@H](CS/C=C\\NC4=O)NC(=O)[C@H](CC(N)=O)NC(=O)[C@H](Cc4ccccc4)NC3=O)CS[C@H]2C)NC(=O)[C@H](CC(C)C)NC1=O [F1I R13D]", "RESULT": "216.6 ng/mL"}

Now look at this entry.
[ask] API: value(readout= Toxin B level at Day-22, system= Clostridium difficile UNT103-1, query= C=C1NC(=O)[C@H](Cc2c[nH]c3ccccc23)NC(=O)[C@H](NC(=O)[C@H](CCCCN)NC(=O)[C@@H](N)C(C)C)CSC[C@@H](C(=O)N[C@H]2C(=O)N3CCC[C@H]3C(=O)NCC(=O)N[C@H](C(=O)N[C@@H](C)C(=O)N[C@@H](CC(N)=O)C(=O)N/C(=C\C)C(=O)NCC(=O)N[C@@H]3CSC[C@@H]4NC(=O)[C@H](Cc5ccc(O)cc5)NC(=O)[C@@H](CS/C=C\NC4=O)NC(=O)[C@H](CC(N)=O)NC(=O)[C@H](Cc4ccccc4)NC3=O)CS[C@H]2C)NC(=O)[C@H](CC(C)C)NC1=O [F1V R13N] )
[reply] 0.8/0.8** ng/mL
